Target or system Sodium-dependent dopamine transporter (Homo sapiens): recorded AC50 listed per item. Also: assay procedure not described here.

Qu. Which AC50 reading was recorded for the compound C=CCC1(CC(C)C)C(=O)NC(=O)NC1=O [BUTALBITAL] ?
Ans. > 10 µM

Qu. Next record, please: COc1ccc(CC(C)(C)NC[C@H](O)c2cc(O)cc3c2OCC(=O)N3)cc1 [OLODATEROL]
Ans. 11 µM

Qu. Next record, please: O=C(NCCNCC(O)COc1ccc(O)cc1)N1CCOCC1 (centres undefined) [XAMOTEROL]
Ans. > 30 µM

Qu. Next record, please: CCC(CC)(CC(=O)Nc1cccc(/C=C/c2nc(C3CCC3)cs2)c1)C(=O)O
Ans. > 30 µM

Qu. Next record, please: O=P1(NCCCl)OCCCN1CCCl (centres undefined) [IFOSFAMIDE]
Ans. > 30 µM

Qu. Next record, please: COC(=O)[C@H]1[C@H]2C[C@@H]3c4[nH]c5cc(OC)ccc5c4CCN3C[C@H]2C[C@@H](OC(=O)/C=C/c2cc(OC)c(OC)c(OC)c2)[C@@H]1OC [RESCINNAMINE]
Ans. 18.9 µM

Qu. Next record, please: C[C@H]1CNCCc2ccc(Cl)cc21 [LORCASERIN]
Ans. > 30 µM

Qu. Next record, please: CCCCN1C[C@H](O)[C@@H](O)[C@H](O)[C@H]1CO
Ans. > 30 µM

Qu. Next record, please: COc1ccccc1OCCNCC(O)c1ccc(C)c(S(N)(=O)=O)c1 (centres undefined) [AMOSULALOL]
Ans. > 30 µM
